Where do the numbers come from? From PubChem BioAssay (EPA / NIEHS).

Assay: BSK_LPS_SRB: Viability Assessment in the BioMAP Diversity Plus: LPS Assay (AID 2283079);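 further: total protein by sulforhodamine B absorbance as a cytotoxicity measure; measured one day after compound addition; fitted in both directions against DMSO so loss or gain of signal counts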
Settings: primary human HUVEC with PBMC
Active and inactive are the calls of the source. How the source made its calls: active means hit-call score of the fitted dose curve at least 0.9, where 1 is the maximum; inactive means score below 0.9.
Outcome field: choose from active, inactive

Problem: For C=C(C)C(=O)[O][Sn]([CH2]CCC)([CH2]CCC)[CH2]CCC , which call appears in the assay record?
Solution: active

Problem: Field entry: C(=NC1CCCCC1)=NC1CCCCC1
Solution: active

Problem: Field entry: ClC(Cl)=C(Cl)C(Cl)=C(Cl)Cl
Solution: active

Problem: Field entry: CCCCCCCCC(=O)NCc1ccc(O)c(OC)c1
Solution: inactive

====

Assay: BSK_3C_Vis: BioMAP Diversity Plus: 3C Assay for Morphology Visualization (AID 2283025);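 further: fitted both ways so gain or loss versus DMSO counts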
Conditions: primary human endothelial cells (HUVEC)
The source made the active and inactive calls. The calls were made as follows: active = hit-call score of the fitted dose curve at least 0.9, where 1 is the maximum; inactive = score below 0.9.
Outcome field: choose from active, inactive

Problem: For COc1cc(-c2ccc(N)c(OC)c2)ccc1N , which call appears in the assay record?
Solution: inactive

Problem: Field entry: CCOP(=S)(OCC)SCCS(=O)(=O)CC
Solution: inactive

Problem: Field entry: CC(=O)[O][Hg][c]1ccccc1
Solution: active

Problem: Field entry: C[C@@H]1C[C@@H]([C@H](O)CC2CC(=O)NC(=O)C2)C(=O)[C@@H](C)C1
Solution: active

Problem: Field entry: ClCC(Cl)CCl
Solution: inactive

====

Target: human CYP1A2, CYP1A2 (gene 1544)
Test: NVS_ADME_hCYP1A2: NovaScreen (NVS) CYP450-related Enzyme Activity (ADME) Assay for human CYP1A2 (AID 2283102)
Calls of active or inactive are those of the source. How the source made its calls: active means hit-call score of the fitted dose curve at least 0.9, where 1 is the maximum; inconclusive means response in the unintended direction; inactive means score below 0.9.
Outcome field: choose from active, inactive

Problem: For Cn1sc(Cl)cc1=O , which call appears in the assay record?
Solution: inactive

Problem: Field entry: CC(=O)[O][Hg][c]1ccccc1
Solution: active

Problem: Field entry: CCOC(=O)Nc1cccc(OC(=O)Nc2ccccc2)c1
Solution: active

Problem: Field entry: O=C(Nc1ccc2[nH]ccc2c1)c1cc2cc(F)ccc2n1Cc1cccc(F)c1
Solution: inactive

Problem: Field entry: COP(=S)(OC)Oc1ccc(Sc2ccc(OP(=S)(OC)OC)cc2)cc1
Solution: active

====

Read-out: Matrix Metallopeptidase 1 (MMP1), MMP1 (gene 4312)
Assay: BSK_MyoF_MMP1: BioMAP Diversity Plus: MyoF Assay for Matrix Metallopeptidase 1 (MMP1) Biomarker Activity (AID 2284268)
Conditions: primary human lung fibroblasts
Activity calls are given as the source filed them. Rule for the calls: active = hit-call score of the fitted dose curve at least 0.9, where 1 is the maximum; inactive = score below 0.9.
Outcome field: choose from active, inactive

Problem: For COc1cc(OC)nc(NC(=O)NS(=O)(=O)c2ncccc2C(=O)N(C)C)n1 , which call appears in the assay record?
Solution: inactive

Problem: Field entry: C(=NC1CCCCC1)=NC1CCCCC1
Solution: active

Problem: Field entry: CC(=O)C(Cl)C(=O)N(C)C (configuration not stated)
Solution: inactive

Problem: Field entry: O=S(=O)(c1ccc(Cl)cc1)c1ccc(Cl)cc1
Solution: inactive

Problem: Field entry: O=C(OC1CCCCC1)c1ccccc1C(=O)OC1CCCCC1
Solution: active

Problem: Field entry: BrCCBr
Solution: inactive

Problem: Field entry: CCOP(=S)(OCC)Oc1ccc(S(C)=O)cc1 (configuration not stated)
Solution: inactive

====

Read-out: Interleukin 6 Receptor (IL6R), IL6R (gene 3570)
Test: LTEA_HepaRG_IL6R: Life Technologies and Expression Analysis (LTEA) Assay for Interleukin 6 Receptor (IL6R) using HepaRG (AID 2283510)
Details: mRNA level, 48 h; actives raise or lower the signal
Active and inactive are the calls of the source. How the source made its calls: active means hit-call score of the fitted dose curve at least 0.9, where 1 is the maximum; inactive means score below 0.9.
Outcome field: choose from Y (active), N (inactive)

Problem: For O=C(O)C(F)(F)C(F)(F)C(F)(F)C(F)(F)C(F)(F)C(F)(F)C(F)(F)C(F)(F)C(F)(F)C(F)(F)F , which call appears in the assay record?
Solution: Y

Problem: Field entry: CCOP(=S)(OCC)Oc1nc(Cl)c(Cl)cc1Cl
Solution: N

Problem: Field entry: O=C(Nc1ccc2[nH]ccc2c1)c1cc2cc(F)ccc2n1Cc1cccc(F)c1
Solution: Y

Problem: Field entry: NC(=O)O
Solution: N

Problem: Field entry: CCC(=O)C(CC(C)N(C)C)(c1ccccc1)c1ccccc1 (stereo unspecified)
Solution: N

Problem: Field entry: C[C@@H]1C[C@@H]([C@H](O)CC2CC(=O)NC(=O)C2)C(=O)[C@@H](C)C1
Solution: N

Problem: Field entry: O=[N+]([O-])c1ccc(O)c([N+](=O)[O-])c1
Solution: Y

Problem: Field entry: O=c1[nH]c(=O)[nH]c(=O)[nH]1
Solution: N

Problem: Field entry: O=C1C2(Cl)C3(Cl)C4(Cl)C(Cl)(Cl)C5(Cl)C3(Cl)C1(Cl)C5(Cl)C24Cl (stereo unspecified)
Solution: Y

Problem: Field entry: CC(C)(OO)c1ccccc1
Solution: N

Problem: Field entry: O=C(O)C(F)(F)C(F)(F)C(F)(F)C(F)(F)C(F)(F)C(F)(F)F
Solution: N

Problem: Field entry: C=CC(=O)OCCCCCC(C)C
Solution: N

Problem: Field entry: CN(C)N=O
Solution: N

Problem: Field entry: CCC(C)(C)c1ccc(O)c(C(C)(C)CC)c1
Solution: N

Problem: Field entry: C[C@]12CCC(=O)C[C@@H]1CC[C@@H]1[C@@H]2CC[C@]2(C)[C@@H](O)CC[C@@H]12
Solution: N

Problem: Field entry: CC(C)(C)c1cc(O)ccc1O
Solution: N

====

Read-out: Interferon-gamma inducible Protein 10 (IP10), CXCL10 (gene 3627)
Test: BSK_hDFCGF_IP10: BioMAP Diversity Plus: hDFCGF Assay for Interferon-gamma inducible Protein 10 (IP10) Biomarker Activity (AID 2283053)
Settings: primary human foreskin fibroblasts; actives raise or lower the signal
Description: BSK_hDFCGF is a cell-based, multiplexed-readout assay that uses foreskin fibroblast, a human skin primary cell, with measurements taken at 24 hours after chemical dosing in a 96-well plate.BSK_hDFCGF_IP10 is an assay component measured in the BSK_hDFCGF assay. It measures IP-10 antibody related to regulation of gene expression using ELISA technology.Data from the assay component BSK_hDFCGF_IP10 was analyzed into 1 assay endpoint. […]
Active and inactive are the calls of the source. The calls were made as follows: active = hit-call score of the fitted dose curve at least 0.9, where 1 is the maximum; inactive = score below 0.9.
Outcome field: choose from active, inactive

Problem: For O=C(O)C(F)(F)C(F)(F)C(F)(F)C(F)(F)C(F)(F)C(F)(F)F , which call appears in the assay record?
Solution: inactive

Problem: Field entry: ClC(Cl)=C(Cl)C(Cl)=C(Cl)Cl
Solution: inactive

Problem: Field entry: O=[N+]([O-])c1ccc2c3c(cccc13)CC2
Solution: inactive

Problem: Field entry: Oc1cccc2cccnc12
Solution: active

Problem: Field entry: CCOP(=S)(OCC)SCCS(=O)(=O)CC
Solution: inactive

Problem: Field entry: Nc1ncc([N+](=O)[O-])s1
Solution: inactive

Problem: Field entry: CC(C)CCCCCCOC(=O)c1ccccc1C(=O)OCCCCCCC(C)C
Solution: inactive

Problem: Field entry: C[C@@H]1C[C@@H]([C@H](O)CC2CC(=O)NC(=O)C2)C(=O)[C@@H](C)C1
Solution: active

Problem: Field entry: CCOP(=S)(OCC)Oc1ccc(S(C)=O)cc1 (configuration not stated)
Solution: inactive

Problem: Field entry: CCOP(=S)(OCC)Oc1nc(Cl)c(Cl)cc1Cl
Solution: active

Problem: Field entry: ClC1(Cl)C2(Cl)C3(Cl)C4(Cl)C(Cl)(Cl)C5(Cl)C3(Cl)C1(Cl)C5(Cl)C24Cl (configuration not stated)
Solution: inactive

Problem: Field entry: Nc1cccc2ccccc12
Solution: active

====

Read-out: Vascular cell adhesion molecule 1 (VCAM1), VCAM1 (gene 7412)
Assay: BSK_hDFCGF_VCAM1: BioMAP Diversity Plus: hDFCGF Assay for Vascular cell adhesion molecule 1 (VCAM1) Biomarker Activity (AID 2283065);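 on AC50: VCAM-1 protein level quantified by ELISA after 24 h chemical exposure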
Conditions: primary human foreskin fibroblasts; actives raise or lower the signal
The source made the active and inactive calls. The calls were made as follows: active = hit-call score of the fitted dose curve at least 0.9, where 1 is the maximum; inactive = score below 0.9.
metric_name: AC50

Known results for compounds:
Problem: State the recorded AC50 for this entry: CCC(C)(C)c1ccc(O)c(C(C)(C)CC)c1
Solution: 9.33 µM (active)

Problem: Field entry: COP(=S)(OC)Oc1ccc(S(=O)(=O)N(C)C)cc1
Solution: inactive

Problem: Field entry: Nc1cccc2ccccc12
Solution: 25.9 µM (active)

Problem: Field entry: C[C@@H]1C[C@@H]([C@H](O)CC2CC(=O)NC(=O)C2)C(=O)[C@@H](C)C1
Solution: 0.915 µM (active)

Problem: Field entry: O=[N+]([O-])c1ccc2c3c(cccc13)CC2
Solution: inactive

Okay, now this compound:
Problem: State the recorded AC50 for this entry: O=S(=O)(c1ccc(Cl)cc1)c1ccc(Cl)cc1
Solution: 5.32 µM (active)

====

Read-out: Broad substrate specificity ATP-binding cassette transporter ABCG2 (Homo sapiens)
Assay: LTEA_HepaRG_ABCG2: Life Technologies and Expression Analysis (LTEA) Assay for ABC Transporter (ABCG2) using HepaRG (AID 2283465)
Conditions: mRNA level, 48 h; actives raise or lower the signal
Calls of active or inactive are those of the source. The calls were made as follows: active = hit-call score of the fitted dose curve at least 0.9, where 1 is the maximum; inactive = score below 0.9.
Outcome field: choose from 1 (yes) for active, 0 (no) for inactive

Problem: For C[C@@H]1C[C@@H]([C@H](O)CC2CC(=O)NC(=O)C2)C(=O)[C@@H](C)C1 , which call appears in the assay record?
Solution: 1 (yes)

Problem: Field entry: CCOP(=S)(OCC)Oc1nc(Cl)c(Cl)cc1Cl
Solution: 0 (no)

Problem: Field entry: O=c1[nH]c(=O)[nH]c(=O)[nH]1
Solution: 0 (no)

Problem: Field entry: CN(C)N=O
Solution: 0 (no)

Problem: Field entry: NC(=O)O
Solution: 0 (no)

Problem: Field entry: O=C1C2(Cl)C3(Cl)C4(Cl)C(Cl)(Cl)C5(Cl)C3(Cl)C1(Cl)C5(Cl)C24Cl (stereo not drawn)
Solution: 1 (yes)

Problem: Field entry: O=[N+]([O-])c1ccc(O)c([N+](=O)[O-])c1
Solution: 1 (yes)

Problem: Field entry: CCC(C)(C)c1ccc(O)c(C(C)(C)CC)c1
Solution: 0 (no)

Problem: Field entry: ClCC(Cl)CCl
Solution: 0 (no)

Problem: Field entry: CC(C)(OO)c1ccccc1
Solution: 0 (no)

Problem: Field entry: C=C(C)C(=O)[O][Sn]([CH2]CCC)([CH2]CCC)[CH2]CCC
Solution: 1 (yes)

Problem: Field entry: O=C(O)C(Cl)(Cl)Cl
Solution: 0 (no)

Problem: Field entry: CCOP(=S)(OCC)SCSP(=S)(OCC)OCC
Solution: 0 (no)
